# measured_target: Human α2δ-1 Subunit of Cav2.2 Calcium Channel (Homo sapiens)
# Sequence (P54289 25-1103): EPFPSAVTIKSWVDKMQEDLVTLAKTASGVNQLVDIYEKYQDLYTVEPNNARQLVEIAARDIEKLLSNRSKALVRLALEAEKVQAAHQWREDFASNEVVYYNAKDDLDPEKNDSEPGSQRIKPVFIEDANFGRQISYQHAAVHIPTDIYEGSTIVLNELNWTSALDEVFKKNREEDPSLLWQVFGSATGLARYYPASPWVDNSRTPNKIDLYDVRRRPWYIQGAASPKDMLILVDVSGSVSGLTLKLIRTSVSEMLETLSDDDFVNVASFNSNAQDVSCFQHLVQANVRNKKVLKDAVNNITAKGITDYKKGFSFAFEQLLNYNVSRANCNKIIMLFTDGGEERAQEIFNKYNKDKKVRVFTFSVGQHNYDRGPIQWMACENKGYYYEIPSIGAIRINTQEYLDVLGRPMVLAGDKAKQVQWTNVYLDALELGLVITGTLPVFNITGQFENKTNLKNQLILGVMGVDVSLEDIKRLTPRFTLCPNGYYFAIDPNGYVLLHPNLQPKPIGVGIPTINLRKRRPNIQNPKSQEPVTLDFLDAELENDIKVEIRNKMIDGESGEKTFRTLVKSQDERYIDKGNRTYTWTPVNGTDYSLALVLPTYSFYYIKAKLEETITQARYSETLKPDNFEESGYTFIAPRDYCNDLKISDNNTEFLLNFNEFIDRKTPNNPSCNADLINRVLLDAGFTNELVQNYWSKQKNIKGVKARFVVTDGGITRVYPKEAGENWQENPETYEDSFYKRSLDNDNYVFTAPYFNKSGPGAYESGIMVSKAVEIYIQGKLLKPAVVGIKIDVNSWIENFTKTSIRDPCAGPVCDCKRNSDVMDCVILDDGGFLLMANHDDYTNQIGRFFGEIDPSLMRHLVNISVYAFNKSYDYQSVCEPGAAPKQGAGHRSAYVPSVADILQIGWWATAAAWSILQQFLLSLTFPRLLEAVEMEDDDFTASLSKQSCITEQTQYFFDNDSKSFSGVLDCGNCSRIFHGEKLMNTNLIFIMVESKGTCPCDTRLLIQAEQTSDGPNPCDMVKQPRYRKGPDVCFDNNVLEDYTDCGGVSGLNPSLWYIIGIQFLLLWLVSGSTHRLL
# assay_info: Human α2δ-1 subunit of Cav2.2 calcium channel assay, [3H]-Gabapentin binding
# assay_conditions: human α2δ-1 enriched membranes, 15 nM [3H]-Gabapentin
# Method: Human α2δ-1 Subunit of Cav2.2 Calcium Channel Assay Human α2δ-1 enriched membranes (2.5 μg) were incubated with 15 nM of radiolabeled [3H]-Gabapentin in assay buffer containing Hepes-KOH 10 mM, pH 7.4. NSB (non specific binding) was measured by adding 10 μM pregabalin. The binding of the test compound was measured at five different concentrations. […] Filter plates were dried at 60° C. for 1 hour and 30 μl of scintillation cocktail were added to each well before radioactivity reading. […]
Reported Ki by item:

compound | Ki
Cc1nnc(N(C)C)c2nn(-c3cccc(OC(Cc4ccccc4)CN(C)Cc4ccccc4)c3)c(C)c12 (stereo not shown) [Example 44] | ≥ 5 µM
CNCCC(Oc1cccc(-n2nc3c(N(C)C)nnc(C)c3c2C)c1)c1ccccc1OC (stereo not shown) [Example 36] | 0.5 to 5 µM
CNc1nnc(C)c2c(C)n(-c3cccc(OC(CCN)c4ccccc4)c3)nc12 (stereo not shown) [Example 24] | 0.5 to 5 µM

As a next step, examine the compound that follows.
## Task What measured Ki goes with CNCCC(Oc1cccc(-n2nc3c(N(C)C)nnc(C)c3c2C)c1)c1cccs1 (stereo not shown) [Example 51] ?
## Result 0.5 to 5 µM

###

Entries below carry reported Ki on Human norepinephrine transporter (NET) (Homo sapiens, UniProt P23975).
Sequence (P23975 whole entry): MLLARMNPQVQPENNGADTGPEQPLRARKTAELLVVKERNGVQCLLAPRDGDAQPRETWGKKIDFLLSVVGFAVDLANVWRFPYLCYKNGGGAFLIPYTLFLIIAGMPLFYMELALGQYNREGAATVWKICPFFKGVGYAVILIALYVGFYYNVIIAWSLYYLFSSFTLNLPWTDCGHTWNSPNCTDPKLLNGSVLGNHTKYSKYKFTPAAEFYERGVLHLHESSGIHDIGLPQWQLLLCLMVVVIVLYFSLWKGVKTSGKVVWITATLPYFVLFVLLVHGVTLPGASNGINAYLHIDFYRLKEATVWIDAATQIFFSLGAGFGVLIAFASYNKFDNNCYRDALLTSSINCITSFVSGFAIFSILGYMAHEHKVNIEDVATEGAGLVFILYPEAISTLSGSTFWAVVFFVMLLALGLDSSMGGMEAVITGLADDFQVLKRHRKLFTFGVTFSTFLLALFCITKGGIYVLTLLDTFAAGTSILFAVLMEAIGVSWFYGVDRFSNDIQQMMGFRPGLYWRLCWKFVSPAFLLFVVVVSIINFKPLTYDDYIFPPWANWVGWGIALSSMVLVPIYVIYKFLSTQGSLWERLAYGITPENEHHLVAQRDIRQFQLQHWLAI

These solved cases illustrate the format of a correct answer.
compound | Ki
CNC1(CC(Oc2cccc(-n3nc4c(N(C)C)nnc(C)c4c3C)c2)c2ccccc2)CC1 (stereo not drawn) [Example 49] | < 0.1 µM
CNCCC(Oc1cccc(-n2nc3c(N(C)C)nnc(C)c3c2C)c1)c1ccc(OC(F)(F)F)cc1 (stereo not drawn) [Example 46] | 0.1 to 0.5 µM
CNCCC(Oc1cccc(-n2nc3c(N(C)C)nnc(C)c3c2C)c1)c1cccc(C(N)=O)c1 (stereo not drawn) [Example 56] | 0.1 to 0.5 µM
CNCC[C@@H](Oc1cccc(-n2c(C)c3c(C)nnc(C)c3c2C)c1)c1cccc(F)c1 [Example 69] | 0.1 to 0.5 µM
Cc1nnc(N(C)C)c2nn(-c3cccc(OC(CCN)c4cccnc4)c3)c(C)c12 (stereo not drawn) [Example 50] | ≥ 1 µM
Cc1nnc(N(C)C)c2nn(-c3cccc(OC(CN(C)C)c4cccnc4)c3)c(C)c12 (stereo not drawn) [Example 52] | ≥ 1 µM
CNCCC(Oc1cccc(-n2nc3c(N(C)C)nnc(C)c3c2C)c1)c1ccccn1 (stereo not drawn) [Example 9] | 0.1 to 0.5 µM
CNCCC(Oc1cccc(-n2nc3c(N(C)C)nnc(C)c3c2C)c1)c1cccs1 (stereo not drawn) [Example 51] | < 0.1 µM
CNCCC(Oc1cccc(-n2nc3c(N(C)C)nnc(C)c3c2C)c1)c1ccccc1OC (stereo not drawn) [Example 36] | 0.1 to 0.5 µM
CCNCCC(Oc1cccc(-n2nc3c(N(C)C)nnc(C)c3c2C)c1)c1ccccc1 (stereo not drawn) [Example 3] | 0.1 to 0.5 µM

## Task Tell me reported Ki for Cc1nnc(N(C)C)c2nn(-c3cccc(OC(CCN(C)C)c4ccccc4)c3)c(C)c12 (stereo not drawn) [Example 2] , tested with Human norepinephrine transporter (NET) (Homo sapiens, UniProt P23975).
## Result 0.1 to 0.5 µM

## Task Tell me reported Ki for CNCCC(Oc1cccc(-n2nc3c(N(C)C)nnc(C)c3c2C)c1)c1ccc(F)cc1 (stereo not drawn) [Example 8] , tested with Human norepinephrine transporter (NET) (Homo sapiens, UniProt P23975).
## Result < 0.1 µM

## Task Tell me reported Ki for CNCCC(Oc1cccc(-n2nc3c(N(C)C)nnc(C)c3c2C)c1)c1ccccc1F (stereo not drawn) [Example 30] , tested with Human norepinephrine transporter (NET) (Homo sapiens, UniProt P23975).
## Result < 0.1 µM

## Task Tell me reported Ki for Cc1nnc(N(C)C)c2nn(-c3cccc(OC(CCN)c4cccc(F)c4)c3)c(C)c12 (stereo not drawn) [Example 21] , tested with Human norepinephrine transporter (NET) (Homo sapiens, UniProt P23975).
## Result 0.1 to 0.5 µM

## Task Tell me reported Ki for Cc1nnc(N(C)C)c2nn(-c3cccc(OC(CCN)c4ccccc4F)c3)c(C)c12 (stereo not drawn) [Example 19] , tested with Human norepinephrine transporter (NET) (Homo sapiens, UniProt P23975).
## Result 0.1 to 0.5 µM

## Task Tell me reported Ki for CNCCC(Oc1cccc(-n2nc3c(NC)nnc(C)c3c2C)c1)c1ccccc1 (stereo not drawn) [Example 25] , tested with Human norepinephrine transporter (NET) (Homo sapiens, UniProt P23975).
## Result 0.1 to 0.5 µM

## Task Tell me reported Ki for CNCC[C@@H](Oc1cccc(-n2nc3c(N(C)C)nnc(C)c3c2C)c1)c1ccccc1F [Example 62] , tested with Human norepinephrine transporter (NET) (Homo sapiens, UniProt P23975).
## Result < 0.1 µM

## Task Tell me reported Ki for CNCCC(Cc1ccccc1)Oc1cccc(-n2nc3c(N(C)C)nnc(C)c3c2C)c1 (stereo not drawn) [Example 38] , tested with Human norepinephrine transporter (NET) (Homo sapiens, UniProt P23975).
## Result 0.1 to 0.5 µM

## Task Tell me reported Ki for CNCCC(Oc1cccc(-n2nc3c(N(C)CCCO)nnc(C)c3c2C)c1)c1ccccc1F (stereo not drawn) [Example 32] , tested with Human norepinephrine transporter (NET) (Homo sapiens, UniProt P23975).
## Result < 0.1 µM

## Task Tell me reported Ki for Cc1nnc(N(C)C)c2nn(-c3cccc(OC(CCN)c4ccccc4)c3)c(C)c12 (stereo not drawn) [Example 4] , tested with Human norepinephrine transporter (NET) (Homo sapiens, UniProt P23975).
## Result 0.1 to 0.5 µM

## Task Tell me reported Ki for CNCCC(Oc1cccc(-n2nc3c(N)nnc(C)c3c2C)c1)c1ccccc1F (stereo not drawn) [Example 26] , tested with Human norepinephrine transporter (NET) (Homo sapiens, UniProt P23975).
## Result 0.1 to 0.5 µM
